Each record here notes measured EC50.
Tgt: histamine-H2 receptors (Cavia porcellus, UniProt P47747)
Construct: determined on the isolated atrium or ileum of the guinea-pig; from tissue; host or cells: isolated right atrium of the guinea-pig
Sequence (P47747 whole entry): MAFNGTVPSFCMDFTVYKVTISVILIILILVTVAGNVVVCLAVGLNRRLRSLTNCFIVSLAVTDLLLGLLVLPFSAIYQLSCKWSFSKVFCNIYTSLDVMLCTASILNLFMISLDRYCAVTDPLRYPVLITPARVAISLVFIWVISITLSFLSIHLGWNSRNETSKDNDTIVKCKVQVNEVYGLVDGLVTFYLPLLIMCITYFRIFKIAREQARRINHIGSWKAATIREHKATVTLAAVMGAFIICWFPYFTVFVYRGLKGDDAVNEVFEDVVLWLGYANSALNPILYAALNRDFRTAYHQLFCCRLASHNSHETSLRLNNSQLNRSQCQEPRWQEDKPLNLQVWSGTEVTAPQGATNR
Assay Remarks: cell-based
Design: species or system guinea-pig
Condition Set: isolated right atrium of the guinea pig; read-out: pD2 right atrium (H2-agonistic effect) (converted)
Where a name gives a salt, the structure may show the parent alone.
Endpoint: EC50 (µM)

NC(=NCCN(Cc1ccccc1)c1ccccn1)NCCCc1c[nH]cn1 [Example 140, trihydrochloride] | 1.26
N=C(NCCCc1c[nH]cn1)NCCC(c1ccccc1)c1ccccn1 (centres unmarked) | 0.0398
N=C(NCCCc1c[nH]cn1)NCCSC(c1ccccc1)c1ccccn1 (centres unmarked) | 0.224
Cc1ccc(N(C)CCCNC(=N)NCCCc2c[nH]cn2)nc1 [Example 10, trihydrochloride] | 0.891
N=C(NCCCc1c[nH]cn1)NCCCC(c1ccccc1)c1ccccn1 (centres unmarked) | 0.112
CC(SCCNC(=N)NCCCc1c[nH]cn1)c1ccccc1 (centres unmarked) | 0.288
Cc1[nH]cnc1CCCNC(=N)NCCC(c1ccccc1)c1ccccc1 | 0.126
N=C(NCCCc1c[nH]cn1)NCCC(c1ccccc1)c1ccccc1 | 0.0676
Cc1[nH]c(CN(C)C)nc1CSCCNC(=N)NCCCc1c[nH]cn1 | 0.0676
N=C(NCCCc1c[nH]cn1)NCCC(c1ccccn1)c1cccs1 (centres unmarked) | 0.0933
Cc1ccc(C(SCCNC(=N)NCCCc2c[nH]cn2)c2ccccc2)cc1 (centres unmarked) | 3.89
